Measured values drawn from patent US20250099420A1 for this set.

I'd be grateful if you could share measured Lipophilic Efficiency (logP) for these entries.
Test system: parental HEK cells
Experiment Summary: HEK parental Agonist Counterscreen Assay (non-transfected cells)
Type: cell-based
Measurement Parameters: HEK Agonist Activity
Excerpt: The high control for the agonist counterscreen was Forskolin not acetylcholine.
The reply should be a number, written without any unit.

Prompt line: For the compound shown here, CC1CCCC(NC(=O)CN2CCCN(Cc3ccc(F)cc3Cl)C2=O)C1C (centres unmarked) , give the reported Lipophilic Efficiency (logP).
Response line: 1.61

Prompt line: Then this compound: `Cc1onc(-c2ccccc2Cl)c1C(=O)NNC(=O)CSc1ccccc1[N+](=O)[O-]`
Response line: 1.48

Prompt line: Then this compound: `O=C(CSc1ccc(Cl)cc1)NNC(=O)c1ccc(O)cc1`
Response line: 2.30

Prompt line: Then this compound: `O=C(CCC(=O)c1ccco1)NNC(=O)CN1CCCc2ccccc21`
Response line: 2.68

Prompt line: Then this compound: CC(C(=O)NCCc1ccc(Cl)cc1)n1ncn2cccc2c1=O (centres unmarked)
Response line: 2.84

* * *

Assay Target: GPR139 (Homo sapiens, UniProt Q6DWJ6)
Sequence (Q6DWJ6 whole entry): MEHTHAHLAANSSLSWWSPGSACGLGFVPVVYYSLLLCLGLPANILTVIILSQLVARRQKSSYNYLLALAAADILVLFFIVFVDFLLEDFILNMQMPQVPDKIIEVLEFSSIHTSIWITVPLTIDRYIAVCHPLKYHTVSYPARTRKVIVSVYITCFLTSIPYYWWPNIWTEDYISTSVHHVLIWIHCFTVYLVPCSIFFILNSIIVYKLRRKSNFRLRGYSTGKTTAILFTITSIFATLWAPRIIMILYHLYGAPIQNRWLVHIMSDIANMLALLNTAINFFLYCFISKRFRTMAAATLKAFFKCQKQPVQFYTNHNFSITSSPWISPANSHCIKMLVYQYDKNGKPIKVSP
Experiment Summary: GPR139 Agonist titration / agonist counterscreen assay (calcium detection, HEK-GPR139 cells)
Type: cell-based
Set-up: expressed in transfected cells; host or cells: HEK Aequorin cells, Maxcyte transient transfection
Measurement Parameters: GPR139 Agonist Activity; activity relative to known control
Measurement Kind: Averaged Max % Response (±St. Dev.) (%)
Form entry: value (%) — number only.

Prompt line: For the molecule shown here, CC12C=CC3(CN(Cc4ccccc4)C(=O)C3C1C(=O)NCC1COc3ccccc3O1)O2 (stereo not drawn) , give the reported Averaged Max % Response (±St. Dev.).
Response line: 117.27

Prompt line: Then this molecule: `O=C(CSc1ccc(Cl)cc1)NNC(=O)c1ccc(O)cc1`
Response line: 123.74

Prompt line: Then this molecule: CC1CCCC(NC(=O)CN2CCCN(Cc3ccc(F)cc3Cl)C2=O)C1C (stereo not drawn)
Response line: 113.46

Prompt line: Then this molecule: CCN(CCCNC(=O)CN1CCC(Cc2ccccc2C)C1=O)c1cccc(C)c1 (stereo not drawn)
Response line: 97.57

Prompt line: Then this molecule: `CCc1cc(C2=C/C(=C/c3c(OC)ccc4ccccc34)C(=O)O2)cc(OC)c1OC`
Response line: 110.88

Prompt line: Then this molecule: `O=C(Cn1ncc2c(Cl)cccc21)NCCc1ccc(Cl)cc1`
Response line: 113.63

Prompt line: Then this molecule: `O=c1c2c([nH]c3nc(NCc4ccccc4Cl)nn13)CCC2`
Response line: 93.85

Prompt line: Then this molecule: `Cc1cccc(Cc2cnc(NC(=O)CC(C)C)s2)c1`
Response line: 129.99

Prompt line: Then this molecule: C=CCC(O)(CC=C)C(C)NC(=O)CCC1(Cc2ccc3ccccc3c2)CCC(=O)N1 (stereo not drawn)
Response line: 134.89

Prompt line: Then this molecule: CC(C(=O)NCCC1=CCCCC1)n1c(=O)c2cccn2c2ccccc21 (stereo not drawn)
Response line: 123.62

Prompt line: Then this molecule: `COc1cc(-c2nnc(COc3ccc(Cl)cc3C)o2)cc(OC)c1OC`
Response line: 92.66

Prompt line: Then this molecule: O=C(Cn1ncc2c1-c1ccccc1OC2)Nc1ccc(Cl)cc1 [SR-01000098980]
Response line: 103.90

Prompt line: Then this molecule: `CCOC(=O)c1cccc(NC(=O)Cc2cccc3ccccc23)c1`
Response line: 105.03

Prompt line: Then this molecule: `C=C1N=C(NC2CCCCCC2)c2ccccc2N1`
Response line: 90.10

Prompt line: Then this molecule: O=C(Cn1ncc2c1-c1ccccc1OC2)Nc1ccc(Cl)cc1 [SR-01000152099]
Response line: 112.22

* * *

Assay Target: UniProtKB Q6DWJ6
Experiment Summary: GPR139 Antagonist titration assay (calcium detection, HEK-GPR139 cells, vs EC80 of S-JNJ-63533054)
Measurement Parameters: activity relative to known control
Measurement Kind: GPR139 Antagonist Activity Averaged Max % Response (±St. Dev.)

Prompt line: For the compound shown here, `CCCc1sc(N2CCN(C(=O)c3ccccc3)CC2)nc1-c1ccccc1` , give the reported GPR139 Antagonist Activity Averaged Max % Response (±St. Dev.).
Response line: 57.55 ± 8.35%

Prompt line: Then this compound: `COc1ccc(-c2noc(CN3CCCN(c4ccc(F)cc4)CC3)n2)c(OC)c1OC`
Response line: 66.19 ± 8.60%

Prompt line: Then this compound: `COc1ccc(-n2cc(-c3ccccc3)nc2SCC(=O)Nc2ccccc2C)cc1`
Response line: 86.26 ± 1.14%

Prompt line: Then this compound: `O=C(Nc1ccccc1C(=O)O)c1ccc(Oc2ccc([N+](=O)[O-])cc2)cc1`
Response line: 67.66 ± 7.67%

Prompt line: Then this compound: `COc1ccccc1-n1cc(-c2ccccc2)nc1SCC(=O)Nc1cccc(C)c1C`
Response line: 78.69 ± 5.10%

Prompt line: Then this compound: `COc1ccc(C2=NN(C3CCCCCC3)C(=O)[C@@H]3CC=CC[C@@H]23)cc1OCCCCOc1ccc(-c2nn[nH]n2)cc1`
Response line: 94.71 ± 3.14%

Prompt line: Then this compound: `COc1ccc(OC)c(NC2=C(Cl)C(=O)N(c3ccccc3C)C2=O)c1`
Response line: 82.24 ± 3.16%

Prompt line: Then this compound: `Cc1cc(C)cc(-n2cnc3cc(C(=O)NCc4ccccc4Cl)ccc32)c1`
Response line: 81.29 ± 5.44%

Prompt line: Then this compound: `Cc1ccc(CNC(=O)CSc2nc3ccsc3c(=O)n2NC(=O)c2cccc(Br)c2)cc1`
Response line: 86.39 ± 3.49%

Prompt line: Then this compound: COc1ccc(C(C(=O)NC(C)c2ccccc2)(c2ccccc2)c2ccccc2)cc1 (stereo not shown)
Response line: 56.80 ± 4.90%

Prompt line: Then this compound: `O=c1c(-c2ccc(Cl)cc2)c(C(F)(F)F)oc2cc(O)ccc12`
Response line: 82.02 ± 2.67%

Prompt line: Then this compound: `CCN1C(=O)c2cccc3c(S(=O)(=O)Nc4cccc(F)c4)ccc1c23`
Response line: 81.68 ± 2.49%

Prompt line: Then this compound: `O=C(CSc1nc(-c2ccccc2)cn1-c1ccccc1)Nc1ccc(F)cc1`
Response line: 71.06 ± 5.55%

Prompt line: Then this compound: CC(=O)N1N=C(c2ccc(C)cc2)CC1c1ccccc1F (stereo not shown)
Response line: 48.35 ± 1.75%

Prompt line: Then this compound: `Cc1cccc(-n2cc(-c3ccccc3)nc2SCC(=O)Nc2ccccc2C)c1`
Response line: 90.42 ± 3.10%

Prompt line: Then this compound: CCOC(=O)c1c(C)nc2c(c1-c1ccc(F)cc1)C(=O)CC(c1ccc(Cl)cc1)C2 (stereo not shown)
Response line: 67.9 ± 10.41%

Prompt line: Then this compound: CCOC(=O)C(CC)Oc1ccc2c(C)c(Cc3ccccc3)c(=O)oc2c1 (stereo not shown)
Response line: 74.1 ± 13.55%

Prompt line: Then this compound: `Cc1ccc(-n2cc(-c3ccccc3)nc2OCC(=O)Nc2ccccc2C)cc1`
Response line: 71.75 ± 3.35%

Prompt line: Then this compound: CCn1cc(Cl)c(C(=O)OCC23CCC4c5ccccc5OC(C)(CC2C)C4C3C)n1 (stereo not shown)
Response line: 58.09 ± 4.56%

* * *

Assay Target: GPR139 (Homo sapiens, UniProt Q6DWJ6)
Experiment Summary: GPR139 Agonist titration / agonist counterscreen assay (calcium detection, HEK-GPR139 cells)
Format: cell-based
Design: expressed in transfected cells; host or cells: HEK Aequorin cells, Maxcyte transient transfection
Measurement Parameters: GPR139 Agonist Activity; activity relative to known control
I'd be grateful if you could share measured Averaged Max % Response (±St. Dev.) for these entries.
Form entry: value (%) — number only.

Prompt line: State its Averaged Max % Response (±St. Dev.) on GPR139 (Homo sapiens, UniProt Q6DWJ6): `N[C@H](Cc1ccccc1Cl)c1nc2ccc(-c3ccncc3)cc2[nH]1.O=C(O)C(F)(F)F.O=C(O)C(F)(F)F`
Response line: 97.54

Prompt line: Then this compound: CC(CCc1ccccc1)NC(=O)Cn1ncc2c1-c1ccccc1OC2 (stereo not drawn)
Response line: 96.78

Prompt line: Then this compound: CCC(=O)NNC(=O)C(C)Oc1ccc(Cl)cc1Cl (stereo not drawn)
Response line: 86.53

Prompt line: Then this compound: `Cc1ccc(Nc2cn[nH]c(=S)n2)c(C)c1`
Response line: 74.67

Prompt line: Then this compound: `Cc1cccc(C(=O)NNC(=O)CCc2ccccc2)c1`
Response line: 109.30

Prompt line: Then this compound: `O=C1CCCCN1c1cccc(NS(=O)(=O)c2cc(Cl)ccc2Cl)c1`
Response line: 91.29

Prompt line: Then this compound: Cc1ccc(CC2CCC(CC(=O)CC3CCCCCCC3)C2=O)cc1 (stereo not drawn)
Response line: 78.27

Prompt line: Then this compound: CC(NC(=O)COC(=O)c1ccccc1C(F)(F)F)c1ccccc1 (stereo not drawn)
Response line: 90.68

Prompt line: Then this compound: `Cc1c(Br)c([N+](=O)[O-])nn1CC(=O)NCCc1ccc(Cl)cc1`
Response line: 119.00
